- TARGET OR SYSTEM: human glucagon receptor (GCGR), expressed on CHO-K1 cells (human, UniProt P47871 26-477)
- Sequence (P47871 26-477): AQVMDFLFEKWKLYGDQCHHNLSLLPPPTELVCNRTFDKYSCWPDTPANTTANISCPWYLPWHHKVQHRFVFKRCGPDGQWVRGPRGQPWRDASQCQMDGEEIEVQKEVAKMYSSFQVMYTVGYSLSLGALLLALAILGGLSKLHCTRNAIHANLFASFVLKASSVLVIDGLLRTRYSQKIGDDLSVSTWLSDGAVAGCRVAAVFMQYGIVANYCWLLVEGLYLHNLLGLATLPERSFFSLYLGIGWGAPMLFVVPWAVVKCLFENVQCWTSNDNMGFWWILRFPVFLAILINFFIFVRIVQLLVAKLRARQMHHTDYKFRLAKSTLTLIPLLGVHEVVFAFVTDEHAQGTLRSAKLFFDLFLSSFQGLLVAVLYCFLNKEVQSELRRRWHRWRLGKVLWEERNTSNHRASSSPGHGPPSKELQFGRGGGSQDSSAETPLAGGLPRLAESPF
- PROTOCOL TEXT: cell-based or functional assay
Numbered stars: 1 amine (or outer) side, 2 acyl side, 3 side chain; on linkers, the order of the positions; unused ones are H or OH. Square brackets hold non-standard residues; d marks the D form. Side chains are listed from the residue outwards. Ends that are not written are not given here. * marks the point of attachment. C18 = C18 fatty acid (C16-C22 fatty acids conjugated via γGlu/8-amino-3,6-dioxaoctanoic acid spacers); Biotin = O=C1N[C@H]2[C@H](CS[C@H]2CCCCC(=O)*)N1; γGlu = O=C(O)[C@H](CCC(=O)[*:2])N[*:1]; AEEA = NCCOCCOCC(=O)O; Aib = CC(C)(N)C(=O)O
READOUT NAME: Relative % to native ligand

Return reported Relative % to native ligand; argument: Y[Aib]QGTFTSDYSK([AEEA-AEEA-γGlu-C18])LLDYMMQKDFVQWLLEGGPSSGAPPPS-NH2 (not fully specified (residue 20); printed as YAibQGT FTSDY SK*LLD YMMQB* DFVQW LLEGG PSSGA PPPS) [SEQ ID NO. 88]
20%

Field request: Relative % to native ligand | item: Y[Aib]QGTFTSDYSK([AEEA-AEEA-γGlu-C18])LLDYMMQRDFVQWLLEGGPSSGAPPPSK(Biotin)-NH2 [SEQ ID NO. 90]
19%

What does the record list as Relative % to native ligand for Y[Aib]QGTFTSDYSK([AEEA-AEEA-γGlu-C18])LLDYMMQ[Aib]DFVQYLLEGGPSSGAPPPSK-NH2 (not fully specified (residue 40)) [SEQ ID NO. 92] ?
19%

Suppose we examine the binder Y[Aib]QGTFTSDYSK([AEEA-AEEA-γGlu-C18])LLDYMMQ[Aib]DFVQWLLEGGPSSGAPPPS-NH2 [SEQ ID NO. 84] ; what Relative % to native ligand value has been reported?
20%
